- System: MDA-MB-231 breast
- Protocol summary: NCI-60 one-dose screen, 48 h (100 = growth as untreated, 0 = no growth, -100 = all killed)
- Study conditions: 10 µM unless noted
Compounds without any hit were thinned out: in the full panel of roughly 83,000, 20% have a hit.
Recorded growth, one value per entry.
Metric name: growth (%)

[
  {
    "Compound": "N#Cc1ncc(-c2ccc(F)c(F)c2F)c(NC2CCCCCC2)n1",
    "Measurement": 67
  },
  {
    "Compound": "COc1ccc(/C=C\\c2cc(OC)c(OC)c(OC)c2)c(NS(=O)(=O)c2ccc(C(C)(C)C)cc2)c1O",
    "Measurement": 8.45
  },
  {
    "Compound": "COc1ccc(/C=C2\\C(=O)N(C(=O)c3csc(NC(C)=O)n3)N=C2C)cc1",
    "Measurement": 105
  },
  {
    "Compound": "O=[N+]([O-])c1c(S(=O)(=O)O)cc2cc(S(=O)(=O)O)ccc2c1[N+](=O)[O-]",
    "Measurement": 99.7
  },
  {
    "Compound": "CCNc1nc(N2CC(=O)Nc3cc(OC)ccc32)c2ccccc2n1",
    "Measurement": 12.7
  },
  {
    "Compound": "CC/C=C\\C[C@H](O)C/C=C1/C(=O)C(Cl)=C[C@@H]1C/C=C\\CCCC(=O)OC",
    "Measurement": -55.2
  },
  {
    "Compound": "Nc1c(C(=O)c2ccc(F)cc2)sc2nc3c(cc12)CCCC3",
    "Measurement": 85.7
  },
  {
    "Compound": "NS(=O)(=O)c1ccc(CN2C(=O)c3cccc4cccc(c34)C2=O)cc1",
    "Measurement": 94.3
  },
  {
    "Compound": "NC(N)=NC(N)=Nc1ccccc1-c1ccccc1",
    "Measurement": 116
  },
  {
    "Compound": "CN(C)c1ccc(C2CC(c3ccccc3)=NN2/C=C2\\SC(=O)NC2=O)cc1 (stereo not given)",
    "Measurement": 93.3
  }
]

Data origin, for the record: PubChem BioAssay (NCI)
